# fold change (FC) listing for each entry below
- System: Human immunodeficiency virus 1
- experimental details: Antiviral activity against HIV1 with RT connection domain Y181C/T369I mutant transfected in HEK293 cells assessed as inhibition of viral replication relative to HIV1 NL4-3
- Format: functional
parameter: fold change (FC)

| molecule | parameter | modifier sign | recorded value |
| --- | --- | --- | --- |
| Cc1cn([C@H]2C[C@H](N=[N+]=[N-])[C@@H](CO)O2)c(=O)[nH]c1=O [ZIDOVUDINE] | fold change (FC) | = | 0.9 |
| Cc1ccnc2c1NC(=O)c1cccnc1N2C1CC1 [NEVIRAPINE] | fold change (FC) | > | 400 |
| CC(C)Nc1cccnc1N1CCN(C(=O)c2cc3cc(NS(C)(=O)=O)ccc3[nH]2)CC1 [DELAVIRDINE] | fold change (FC) | > | 250 |
| O=C1Nc2ccc(Cl)cc2[C@@](C#CC2CC2)(C(F)(F)F)O1 [EFAVIRENZ] | fold change (FC) | = | 4 |

* * *

- Tested on: Human immunodeficiency virus 1
- experimental details: Antiviral activity against HIV1 with RT connection domain N348I mutant transfected in HEK293 cells assessed as inhibition of viral replication relative to HIV1 NL4-3
- Assay type: functional

| compound | tested on | fold change (FC) |
| --- | --- | --- |
| O=C1Nc2ccc(Cl)cc2[C@@](C#CC2CC2)(C(F)(F)F)O1 [EFAVIRENZ] | Human immunodeficiency virus 1 | 1.9 |
| Cc1ccnc2c1NC(=O)c1cccnc1N2C1CC1 [NEVIRAPINE] | Human immunodeficiency virus 1 | 4.1 |
| Cc1cn([C@H]2C[C@H](N=[N+]=[N-])[C@@H](CO)O2)c(=O)[nH]c1=O [ZIDOVUDINE] | Human immunodeficiency virus 1 | 2.4 |
| CC(C)Nc1cccnc1N1CCN(C(=O)c2cc3cc(NS(C)(=O)=O)ccc3[nH]2)CC1 [DELAVIRDINE] | Human immunodeficiency virus 1 | 3.4 |

* * *

- System: Human immunodeficiency virus 1
- experimental details: Antiviral activity against HIV1 with RT connection domain G190S mutant transfected in HEK293 cells assessed as inhibition of viral replication relative to HIV1 NL4-3
- Assay type: functional
We begin with a simple list: items and their reported fold change (FC).
parameter: fold change (FC)

| compound structure | tested on | recorded value |
| --- | --- | --- |
| O=C1Nc2ccc(Cl)cc2[C@@](C#CC2CC2)(C(F)(F)F)O1 | Human immunodeficiency virus 1 | 63 |
| CC(C)Nc1cccnc1N1CCN(C(=O)c2cc3cc(NS(C)(=O)=O)ccc3[nH]2)CC1 | Human immunodeficiency virus 1 | 0.3 |
| Cc1cn([C@H]2C[C@H](N=[N+]=[N-])[C@@H](CO)O2)c(=O)[nH]c1=O | Human immunodeficiency virus 1 | 0.8 |
| Cc1ccnc2c1NC(=O)c1cccnc1N2C1CC1 | Human immunodeficiency virus 1 | 145 |

* * *

- Tested on: Human immunodeficiency virus 1
- experimental details: Antiviral activity against HIV1 with RT connection domain L100I/N348I mutant transfected in HEK293 cells assessed as inhibition of viral replication relative to HIV1 NL4-3
- Assay type: functional
Attribute: fold change (FC)

| molecule | fold change (FC) |
| --- | --- |
| Cc1cn([C@H]2C[C@H](N=[N+]=[N-])[C@@H](CO)O2)c(=O)[nH]c1=O [ZIDOVUDINE] | 0.3 |
| O=C1Nc2ccc(Cl)cc2[C@@](C#CC2CC2)(C(F)(F)F)O1 [EFAVIRENZ] | 16 |
| CC(C)Nc1cccnc1N1CCN(C(=O)c2cc3cc(NS(C)(=O)=O)ccc3[nH]2)CC1 [DELAVIRDINE] | 90.7 |
| Cc1ccnc2c1NC(=O)c1cccnc1N2C1CC1 [NEVIRAPINE] | 5.3 |
